assay procedure: gradient 5% acetonitrile 3 min, to 50% in 2 min, to 85% in 15 min, held 3 min, 100 µL/min
assay conditions: column: Zorbax Extend-C18 2.1 x 50 mm; eluents: water / acetonitrile, 0.1% formic acid
Please respond with true when measured RP-LC retention time is strictly beneath 900 s, and with false in all other cases.

1. CCOC(=O)c1noc2ncnc(Nc3ccccc3C)c12 :: false
2. COc1ccc(Nc2c(-c3ccc(N4CCOCC4)cc3)nc3cnccn23)cc1OC :: true
3. Cc1ccc(N2CCC(NC(=O)Nc3cccc(C)c3C)C2=O)cc1 (stereo not given) :: false
4. CC(C)(C)C(=O)N1CCCC(c2ccnc(-c3ccccc3)n2)C1 (stereo not given) :: false
